Ref: paper PMC11357638

Target: hTRPV3 T636A mutant (Homo sapiens, UniProt Q8NET8, T636A)
Construct: expressed in transfected cells; host or cells: HEK293T
Sequence (Q8NET8 whole entry T636A): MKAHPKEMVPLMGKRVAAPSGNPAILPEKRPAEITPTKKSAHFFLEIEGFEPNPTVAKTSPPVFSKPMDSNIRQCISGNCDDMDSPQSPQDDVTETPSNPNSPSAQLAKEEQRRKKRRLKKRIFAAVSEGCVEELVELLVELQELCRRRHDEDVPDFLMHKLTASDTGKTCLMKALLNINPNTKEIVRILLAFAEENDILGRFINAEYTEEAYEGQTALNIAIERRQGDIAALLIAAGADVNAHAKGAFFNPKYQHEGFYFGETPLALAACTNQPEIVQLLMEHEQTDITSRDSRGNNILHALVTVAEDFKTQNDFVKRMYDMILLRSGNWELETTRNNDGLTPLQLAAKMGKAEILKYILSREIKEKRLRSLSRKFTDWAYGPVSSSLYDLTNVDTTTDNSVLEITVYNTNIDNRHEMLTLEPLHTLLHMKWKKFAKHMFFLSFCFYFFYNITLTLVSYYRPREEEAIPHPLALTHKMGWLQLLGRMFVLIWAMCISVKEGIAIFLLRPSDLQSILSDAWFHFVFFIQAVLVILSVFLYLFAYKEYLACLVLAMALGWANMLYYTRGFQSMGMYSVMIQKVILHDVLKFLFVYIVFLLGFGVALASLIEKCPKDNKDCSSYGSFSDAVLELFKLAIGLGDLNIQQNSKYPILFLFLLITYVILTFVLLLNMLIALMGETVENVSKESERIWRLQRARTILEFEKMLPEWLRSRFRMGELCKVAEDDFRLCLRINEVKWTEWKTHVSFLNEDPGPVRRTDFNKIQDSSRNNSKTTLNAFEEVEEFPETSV
Test: Whole-cell patch-clamp of hTRPV3 T636A mutant in HEK293T cells
Assay type: cell-based
Settings: T636A hTRPV3, 50 μM 2-APB, +80 mV, Hill fit; read-out: IC50, inhibition of T636A mutant outward currents
Measured Parameter: IC50 (µM)
# value in µM; strip the unit string

Q. Give the measured IC50 of COC(=O)/C=C/c1ccc(O)c(O)c1 [CAMC, caffeic acid methyl caffeate] .
A. 417

---

Biological target: human TRPV3 (hTRPV3) channel (Homo sapiens, UniProt Q8NET8)
Construct: expressed in transfected cells; host or cells: HEK293T
Sequence (Q8NET8 whole entry): as the sequence (Q8NET8 whole entry T636A) above, with A636T counted along it
Assay: Whole-cell patch-clamp of hTRPV3 currents in transfected HEK293T cells
Format: cell-based
Measured Parameter: pIC50
To interpret pIC50, take it as minus log10 of a concentration measured in moles per litre.

Q. Give the measured pIC50 of O=C(/C=C/c1ccc(O)c(O)c1)OCCc1ccccc1 .
A. 3.56
